Molecular target: T1, A1 protein (mouse, residues 1-152, P104K C113S, used as wild type) (mouse)
T1 sequence (Q07440 1-152 with P104K C113S, looked up): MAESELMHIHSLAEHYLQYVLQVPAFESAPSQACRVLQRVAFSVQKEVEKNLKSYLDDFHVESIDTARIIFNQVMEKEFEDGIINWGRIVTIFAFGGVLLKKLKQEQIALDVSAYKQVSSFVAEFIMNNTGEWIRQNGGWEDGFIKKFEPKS
Test: stopped-flow fluorescence kinetics; association; TAMRA-labelled peptide with folded partner at least 10-fold higher (pseudo-first-order); kon from the gradient of kobs versus partner concentration; 25 °C; 50 mM sodium phosphate, 0.05% (v/v) Tween 20, pH 7.0
Where no end group is shown, it is not given here. The star is where a group is joined. TAMRA = 5-carboxytetramethylrhodamine, CN(C)c1ccc2c(-c3ccc(C(=O)*)cc3C(=O)[O-])c3ccc(=[N+](C)C)cc-3oc2c1
readout_label: kon (M⁻¹ s⁻¹)

P. {TAMRA}-RVEEEEWARGIGAQLRRAADDLNAQYERRRQEEQH [PUMA E136G peptide (on the M144A wild type), TAMRA-labelled]
Q. {TAMRA}-RVEEEEWAREIGAQLRRAADDANAQYERRRQEEQH [PUMA L148A peptide (on the M144A wild type), TAMRA-labelled]
[ask] # compare kon for P vs Q ; return the one with the smaller value The response must carry the label of the picked entry.
[reply] Q

A. {TAMRA}-RVEEEAWAREIGAQLRRAADDLNAQYERRRQEEQH [PUMA E132A peptide (on the M144A wild type), TAMRA-labelled]
B. {TAMRA}-RVEEEEFAREIGAQLRRAADDLNAQYERRRQEEQH [PUMA W133F peptide (on the M144A wild type), TAMRA-labelled]
C. {TAMRA}-RVEEEEWAREAGAQLRRAADDLNAQYERRRQEEQH [PUMA I137A peptide (on the M144A wild type), TAMRA-labelled]
[ask] Arrange the 3 entries by kon so the values rise. List the labels according to the requested ordering.
[reply] C, B, A

I. {TAMRA}-RVEEEEWAREIGAQLRRAADGLNAQYERRRQEEQH [PUMA D147G peptide (on the M144A wild type), TAMRA-labelled]
II. {TAMRA}-RVEEEEWAREIGAQLRGAADDLNAQYERRRQEEQH [PUMA R143G peptide (on the M144A wild type), TAMRA-labelled]
[ask] # compare kon for I vs II ; return the one with the smaller value The response must carry the label of the picked entry.
[reply] II
(II: 3.03e+06 M⁻¹ s⁻¹, I: 6.76e+06 M⁻¹ s⁻¹)
